target-or-test-system: T1, Recombinant DR3-Fc (R&D Systems, cat. #943-D3) (UniProt Q93038 25-199, limits assumed)
T1 construct: dimeric MW~92 kDa; also called DR3 receptor; Fc-DR3; not shown: Fc part of the bought fusion
T1 sequence (looked up): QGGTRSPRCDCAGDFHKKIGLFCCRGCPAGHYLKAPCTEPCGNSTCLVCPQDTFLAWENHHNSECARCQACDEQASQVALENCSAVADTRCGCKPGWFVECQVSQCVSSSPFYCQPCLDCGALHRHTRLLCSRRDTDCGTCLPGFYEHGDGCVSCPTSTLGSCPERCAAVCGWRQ
protocol-notes: ELISA, DR3-Fc immobilized
Entries and their EC50 values follow.
Lab book: enter the figure in nM, no units written.

Here is how some binders turned out for EC50.
[
  {
    "binder": "TL1W103 (His-TEV-TL1A T185A) (ligand, also called TL1W103 (T185A)) HHHHHHENLYFQGLKGQEFAPSHQQVYAPLRADGDKPRAHLTVVRQTPTQHFKNQFPALHWEHELGLAFTKNRMNYTNKFLLIPESGDYFIYSQVTFRGMTSECSEIRQAGRPNKPDSITVVITKVADSYPEPTQLLMGTKSVCEVGSNWFQPIYLGAMFSLQEGDKLMVNVSDISLVDYTKEDKTFFGAFLL",
    "reported-endpoint": "EC50",
    "recorded-result": 57.9
  },
  {
    "binder": "TL1W111 (His-TEV-TL1A S187D) (ligand, also called TL1W111 (S187D)) HHHHHHENLYFQGLKGQEFAPSHQQVYAPLRADGDKPRAHLTVVRQTPTQHFKNQFPALHWEHELGLAFTKNRMNYTNKFLLIPESGDYFIYSQVTFRGMTSECSEIRQAGRPNKPDSITVVITKVTDDYPEPTQLLMGTKSVCEVGSNWFQPIYLGAMFSLQEGDKLMVNVSDISLVDYTKEDKTFFGAFLL",
    "reported-endpoint": "EC50",
    "recorded-result": 44.2
  },
  {
    "binder": "TL1W97 (His-TEV-TL1A K173S) (ligand, also called TL1W97 (K173S)) HHHHHHENLYFQGLKGQEFAPSHQQVYAPLRADGDKPRAHLTVVRQTPTQHFKNQFPALHWEHELGLAFTKNRMNYTNKFLLIPESGDYFIYSQVTFRGMTSECSEIRQAGRPNSPDSITVVITKVTDSYPEPTQLLMGTKSVCEVGSNWFQPIYLGAMFSLQEGDKLMVNVSDISLVDYTKEDKTFFGAFLL",
    "reported-endpoint": "EC50",
    "recorded-result": 131
  },
  {
    "binder": "TL1W102 (His-TEV-TL1A S176K) (ligand, also called TL1W102 (S176K)) HHHHHHENLYFQGLKGQEFAPSHQQVYAPLRADGDKPRAHLTVVRQTPTQHFKNQFPALHWEHELGLAFTKNRMNYTNKFLLIPESGDYFIYSQVTFRGMTSECSEIRQAGRPNKPDKITVVITKVTDSYPEPTQLLMGTKSVCEVGSNWFQPIYLGAMFSLQEGDKLMVNVSDISLVDYTKEDKTFFGAFLL",
    "reported-endpoint": "EC50",
    "recorded-result": 182
  },
  {
    "binder": "TL1W125 (His-TEV-TL1A N207E) (ligand, also called TL1W125 (N207E)) HHHHHHENLYFQGLKGQEFAPSHQQVYAPLRADGDKPRAHLTVVRQTPTQHFKNQFPALHWEHELGLAFTKNRMNYTNKFLLIPESGDYFIYSQVTFRGMTSECSEIRQAGRPNKPDSITVVITKVTDSYPEPTQLLMGTKSVCEVGSEWFQPIYLGAMFSLQEGDKLMVNVSDISLVDYTKEDKTFFGAFLL",
    "reported-endpoint": "EC50",
    "recorded-result": 506
  }
]

Shift focus to the following entry.
Q) I'd like to know its EC50. The binder in question is TL1W2 (His-TEV-hTL1A 72-251) (ligand, Non-covalent trimer; entry holds the His-TEV tag; also called His-TL1A; His-TL1A (TL1W2)) HHHHHHENLYFQGLKGQEFAPSHQQVYAPLRADGDKPRAHLTVVRQTPTQHFKNQFPALHWEHELGLAFTKNRMNYTNKFLLIPESGDYFIYSQVTFRGMTSECSEIRQAGRPNKPDSITVVITKVTDSYPEPTQLLMGTKSVCEVGSNWFQPIYLGAMFSLQEGDKLMVNVSDISLVDYTKEDKTFFGAFLL
A) 26.2

The measurements presented in this section are drawn from patent US20220056104A1.
